This listing pairs binders with measured OD450.
- System tested: T1, human MSLN-R3 protein (human, UniProt Q13421 487-598)
- T1 construct: also called hMSLN-R3
- T1 sequence (Q13421 495-606, form in doubt): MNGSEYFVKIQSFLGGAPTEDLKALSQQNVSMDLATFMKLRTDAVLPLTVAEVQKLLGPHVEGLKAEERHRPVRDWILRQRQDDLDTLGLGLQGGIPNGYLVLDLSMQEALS
- Experiment notes: ELISA on coated antigen, antibody 0.0001 nM
Response body: numeric value in OD450, unit text excluded.

binder="F7.33.24-H4 (scFv, not shown: small tags and cut ends, also called S009-F7.33.24 humanized antibody VH1a + VL1) scFv: EVQLVQSGAEVKKPGASVKVSCKASGYTFTSYWMHWVRQAPGQRLEWMGNVNPSSGGSNYNEKFKNRVTITVDKSASTAYMELSSLRSEDTAVYYCAPHYIGSRPGFAYWGQGTLVTVSSGGGGSGGGGSGGGGSDIVMTQSPDSLAVSLGERATINCKASQNVGTNIAWYQQKPGQSPKALIYSASYRYSGVPDRFSGSGSGTDFTLTISSLQAEDVAVYYCQQYNSYPLTFGGGTKVEIK" assay_value=0.04

Kindly consider the entry below.
Requested read-out: OD450. Entry: F7.33.24-H6 (scFv, not shown: small tags and cut ends, also called S009-F7.33.24 humanized antibody VH1a + VL3) scFv: EVQLVQSGAEVKKPGASVKVSCKASGYTFTSYWMHWVRQAPGQRLEWMGNVNPSSGGSNYNEKFKNRVTITVDKSASTAYMELSSLRSEDTAVYYCAPHYIGSRPGFAYWGQGTLVTVSSGGGGSGGGGSGGGGSDIVMTQTPLSLSVTPGQPASISCKASQNVGTNIAWYQQKPGQSPQALIYSASYRYSGVPDRFSGSGSGTDFTLKISRVEAEDVGVYYCQQYNSYPLTFGGGTKVEIK
0.04

Reference source: patent US20250250357A1
